Molecular target: KRAS G12S (Homo sapiens, UniProt P01116+P62937, G12S)
Sequence (P01116 1-169 isoform P01116-2 G12S limits assumed): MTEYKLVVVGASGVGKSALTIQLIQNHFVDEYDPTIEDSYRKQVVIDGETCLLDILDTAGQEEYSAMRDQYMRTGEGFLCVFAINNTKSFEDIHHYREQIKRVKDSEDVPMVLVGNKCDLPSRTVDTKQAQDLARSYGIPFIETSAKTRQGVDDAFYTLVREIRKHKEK
Sequence (P62937 whole entry): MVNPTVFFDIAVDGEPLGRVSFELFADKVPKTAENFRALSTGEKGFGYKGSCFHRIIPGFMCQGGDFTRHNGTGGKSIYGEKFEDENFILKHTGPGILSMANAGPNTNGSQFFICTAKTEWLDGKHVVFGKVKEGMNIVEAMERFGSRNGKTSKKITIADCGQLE
Experiment: Ras-Raf disruption / FRET / MOA assay (BRAF RBD)
Type: biochemical
Details: Ras-Raf disruption, with Cyclophilin A; read-out: KRAS G12S FRET data IC50
experimental_endpoint: IC50

INPUT: Give IC50 for CCn1c(-c2cccnc2[C@H](C)OC)c2c3cc(ccc31)-c1cc(O)cc(c1)C[C@H](NC(=O)[C@H](C(C)C)N1CC[C@]3(CCN(C(=O)[C@H]4CN4)C3)C1=O)C(=O)N1CCC[C@H](N1)C(=O)OCC(C)(C)C2 [Example 146] tested on KRAS G12S (Homo sapiens, UniProt P01116+P62937, G12S).
OUTPUT: 10 to 100 nM

INPUT: Check KRAS G12S (Homo sapiens, UniProt P01116+P62937, G12S) data and give IC50 for CCn1c(-c2cccnc2[C@H](C)OC)c2c3cc(ccc31)-c1cc(O)cc(c1)C[C@H](NC(=O)[C@H](C(C)C)N(C)C(=O)C1CC3(C1)CN(C(=O)[C@@H]1CN1)C3)C(=O)N1CCC[C@H](N1)C(=O)OCC(C)(C)C2 [Example 180] .
OUTPUT: 100 to 1000 nM

INPUT: Report IC50 from KRAS G12S (Homo sapiens, UniProt P01116+P62937, G12S) testing of CCn1c(-c2cccnc2[C@H](C)OC)c2c3cc(ccc31)-c1cc(O)cc(c1)C[C@H](NC(=O)[C@H](C(C)C)N(C)C(=O)CC1CN(C(=O)[C@H]3CN3)C1)C(=O)N1CCC[C@H](N1)C(=O)OCC(C)(C)C2 [Example 179]
OUTPUT: 100 to 1000 nM

INPUT: Report value only: IC50, KRAS G12S (Homo sapiens, UniProt P01116+P62937, G12S), CCn1c(-c2cnccc2COC)c2c3cc(ccc31)-c1cccc(c1)C[C@H](NC(=O)[C@H](C(C)C)N(C)C(=O)CCN=C=NCc1ccc(OC)cc1OC)C(=O)N1CCC[C@H](N1)C(=O)OCC(C)(C)C2 [61 A and B]
OUTPUT: > 10000 nM

----------
Kindly supply the reported pIC50 values for the records listed here.
Target: KRAS G12D (Homo sapiens, UniProt P01116+P62937, G12D)
Sequence (P01116 1-169 isoform P01116-2 G12D limits assumed, one chain of several): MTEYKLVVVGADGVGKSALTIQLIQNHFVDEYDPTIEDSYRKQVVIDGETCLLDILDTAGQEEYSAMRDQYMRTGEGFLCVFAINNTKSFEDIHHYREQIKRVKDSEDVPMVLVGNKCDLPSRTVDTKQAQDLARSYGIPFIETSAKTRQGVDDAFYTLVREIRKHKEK
Assay: Disruption of BRAF RBD interaction with Ras (FRET / MOA assay, with Cyclophilin A)
Format: biochemical
Details: read-out: KRAS G12D FRET data, IC50
pIC50: −log10 of the molar value.

INPUT: Report pIC50 under test system KRAS G12D (Homo sapiens, UniProt P01116+P62937, G12D) for CCn1c(-c2cccnc2[C@H](C)OC)c2c3cc(ccc31)-c1csc(n1)C[C@H](NC(=O)[C@H](C(C)C)N(C)C(=O)N1CC([C@H](C)NC)C1)C(=O)N1CCC[C@H](N1)C(=O)OCC(C)(C)C2 .
OUTPUT: 5.00 to 6.00

INPUT: Fill: pIC50 (KRAS G12D (Homo sapiens, UniProt P01116+P62937, G12D)) for this compound CCn1c(-c2cccnc2[C@H](C)OC)c2c3cc(ccc31)-c1csc(n1)C[C@H](NC(=O)[C@H](C(C)C)N(C)C(=O)N1CC([C@@H](C)NC)C1)C(=O)N1CCC[C@H](N1)C(=O)OCC(C)(C)C2 (atropisomer, axis not shown)
OUTPUT: 6.00 to 7.00

INPUT: Give measured pIC50 for CCn1c(-c2cccnc2[C@H](C)OC)c2c3cc(ccc31)-c1csc(n1)C[C@H](NC(=O)[C@H](C(C)C)N(C)C(=O)N1CCN(C(=O)CN(C)C)CC1)C(=O)N1CCC[C@H](N1)C(=O)OCC(C)(C)C2 (atropisomer, axis not shown) (KRAS G12D (Homo sapiens, UniProt P01116+P62937, G12D)).
OUTPUT: 6.00 to 7.00

INPUT: Check KRAS G12D (Homo sapiens, UniProt P01116+P62937, G12D) data and give pIC50 for CCn1c(-c2cccnc2[C@H](C)OC)c2c3cc(ccc31)-c1csc(n1)C[C@H](NC(=O)[C@H](C(C)C)N(C)C(=O)N1CCC3(CCN(C)CC3)C1)C(=O)N1CCC[C@H](N1)C(=O)OCC(C)(C)C2 (atropisomer, axis not shown) .
OUTPUT: 6.00 to 7.00

INPUT: Would you please give the reported pIC50 of CCn1c(-c2cccnc2[C@H](C)OC)c2c3cc(ccc31)-c1cccc(c1)C[C@H](NC(=O)[C@H](C(C)C)N(C)C(=O)[C@H]1CCN(C(C)=O)C1)C(=O)N1CCC[C@H](N1)C(=O)OCC(C)(C)C2 with KRAS G12D (Homo sapiens, UniProt P01116+P62937, G12D)?
OUTPUT: < 5.00

INPUT: // fetch pIC50 for CCn1c(-c2cccnc2[C@H](C)OC)c2c3cc(ccc31)-c1cc(O)cc(c1)C[C@H](NC(=O)[C@H](C(C)C)N(C)C(=O)[C@@H]1CNC[C@@H]1C)C(=O)N1CCC[C@H](N1)C(=O)OCC(C)(C)C2 ; system: KRAS G12D (Homo sapiens, UniProt P01116+P62937, G12D)
OUTPUT: 7.00 to 8.00

INPUT: Under KRAS G12D (Homo sapiens, UniProt P01116+P62937, G12D), report pIC50 for CCn1c(-c2cccnc2[C@H](C)OC)c2c3cc(ccc31)-c1nc(cs1)C[C@H](NC(=O)[C@H](C(C)C)N(C)C(C)=O)C(=O)N1CCC[C@H](N1)C(=O)OCC(C)(C)C2
OUTPUT: 5.00 to 6.00

INPUT: Report its pIC50 with KRAS G12D (Homo sapiens, UniProt P01116+P62937, G12D) as the test system: CCn1c(-c2cccnc2[C@H](C)OC)c2c3cc(ccc31)-c1csc(n1)C[C@H](NC(=O)[C@H](C(C)C)N1CCN(C)C1=O)C(=O)N1CCC[C@H](N1)C(=O)OCC(C)(C)C2
OUTPUT: 5.00 to 6.00

INPUT: // output pIC50; input C=CC(=O)N1CCCN(C(=O)N(C)[C@H](C(=O)N[C@H]2Cc3cc(O)cc(c3)-c3ccc4c(c3)c(c(-c3ccccc3CCOC)n4CC)CC(C)(C)COC(=O)[C@@H]3CCCN(N3)C2=O)C(C)C)CC1 ; system KRAS G12D (Homo sapiens, UniProt P01116+P62937, G12D)
OUTPUT: < 5.00
